# System: SW-620
# assay-remarks: NCI tumour cell line growth inhibition, 48 h
Activity calls are given as the source filed them. Cut-off read from the data, not from the text of the source: active = GI50 up to about 1.1 µM and inactive = higher.
Recorded GI50 by entry

O=C(NNC(=S)Nc1ccc(Cl)cc1)C12CC3CC(CC(C3)C1)C2	3.76 µM (inactive)
COC1=CC(=O)C2C(C1=O)C(c1ccc(Cl)cc1)[C@@H]2C (stereo partly specified)	27.4 µM (inactive)
O=C(O)c1cccc(S(=O)(=O)NN2C(=O)CSC2c2ccccc2)c1 (stereo unspecified)	> 100 µM (inactive)
Cc1ccc(S(=O)(=O)c2c3nc4ccccc4nc3n3c2[nH]c2ccccc23)cc1	> 100 µM (inactive)
CCOC(=O)/C(C(=O)Nc1ccc(Cl)cc1)=C(/N)N1CCCC1	> 100 µM (inactive)

Consider the record given below.
Recorded GI50 of "CN(N=O)C(=O)NNC(=O)N(C)N=O" , please. 36.2 µM (inactive)
